Provenance of the data: ChEMBL document CHEMBL5113392

GI50 for assorted molecules
System: KB 3-1
MEASUREMENT_PROTOCOL: Anticancer activity against human KB 3-1 cells assessed as cell growth inhibition incubated for 72 hrs by MTT assay
Type: functional

[
  {
    "MOLECULE": "O=C1CC(N2C(=O)/C(=C/C(Cl)=C/c3ccc([N+](=O)[O-])cc3)SC2=S)C(=O)N1c1ccc(O)cc1 (centres undefined)",
    "LIMIT_QUALIFIER": "=",
    "GI50 / µM": 8
  },
  {
    "MOLECULE": "COc1cccc2c1C(=O)c1c(O)c3c(c(O)c1C2=O)C[C@@](O)(C(=O)CO)C[C@@H]3O[C@H]1C[C@H](N)[C@H](O)[C@H](C)O1",
    "LIMIT_QUALIFIER": "=",
    "GI50 / µM": 0.98
  },
  {
    "MOLECULE": "O=C1CC(N2C(=O)/C(=C/C(Cl)=C/c3ccc([N+](=O)[O-])cc3)SC2=S)C(=O)N1c1ccc(Cl)cc1 (centres undefined)",
    "LIMIT_QUALIFIER": "=",
    "GI50 / µM": 70.3
  },
  {
    "MOLECULE": "C=CCOc1ccccc1/C=C1\\SC(=S)N(C2CC(=O)N(c3ccc(Cl)cc3)C2=O)C1=O (centres undefined)",
    "LIMIT_QUALIFIER": ">",
    "GI50 / µM": 100
  }
]

* * *

MEASUREMENT_PROTOCOL: Selectivity index, ratio of GI50 for human HaCaT cells to GI50 for human U-251 cells
Type: toxicity
COND: HaCaT cells versus U-251 cells, read-out: RatioGI50
OBSERVED_PROPERTY: selectivity ratio

[
  {
    "MOLECULE": "O=C1Nc2ccccc2/C1=C1/SC(=S)N(C2CC(=O)N(c3ccc(Cl)cc3)C2=O)C1=O (centres undefined)",
    "OBSERVED_PROPERTY": "selectivity ratio",
    "MEASURED_RESULT": 1
  },
  {
    "MOLECULE": "O=C1CC(N2C(=O)/C(=C/C(Cl)=C/c3ccc([N+](=O)[O-])cc3)SC2=S)C(=O)N1c1ccc(O)cc1 (centres undefined)",
    "OBSERVED_PROPERTY": "selectivity ratio",
    "MEASURED_RESULT": 66.9
  },
  {
    "MOLECULE": "O=C1CC(N2C(=O)CSC2=S)C(=O)N1c1ccc(O)cc1 (centres undefined)",
    "OBSERVED_PROPERTY": "selectivity ratio",
    "MEASURED_RESULT": 1
  },
  {
    "MOLECULE": "C=CCOc1cccc(/C=C2\\SC(=S)N(C3CC(=O)N(c4ccc(Cl)cc4)C3=O)C2=O)c1 (centres undefined)",
    "OBSERVED_PROPERTY": "selectivity ratio",
    "MEASURED_RESULT": 1
  }
]

* * *

MEASUREMENT_PROTOCOL: Selectivity index, ratio of GI50 for human HaCaT cells to GI50 for human HCT-116 cells
Assay type: toxicity
COND: HaCaT cells versus HCT-116 cells, read-out: RatioGI50

[
  {
    "MOLECULE": "O=C1CC(N2C(=O)/C(=C/C(Cl)=C/c3ccc([N+](=O)[O-])cc3)SC2=S)C(=O)N1c1ccc(O)cc1 (centres undefined)",
    "selectivity ratio": 16.3
  },
  {
    "MOLECULE": "O=C1Nc2ccccc2/C1=C1/SC(=S)N(C2CC(=O)N(c3ccc(Br)cc3)C2=O)C1=O (centres undefined)",
    "selectivity ratio": 1
  },
  {
    "MOLECULE": "O=C1CC(N2C(=O)CSC2=S)C(=O)N1c1ccc(Cl)cc1 (centres undefined)",
    "selectivity ratio": 0.98
  },
  {
    "MOLECULE": "C=CCOc1cccc(/C=C2\\SC(=S)N(C3CC(=O)N(c4ccc(Cl)cc4)C3=O)C2=O)c1 (centres undefined)",
    "selectivity ratio": 1
  },
  {
    "MOLECULE": "O=C1Nc2ccc(Cl)cc2/C1=C1/SC(=S)N(C2CC(=O)N(c3ccc(Cl)cc3)C2=O)C1=O (centres undefined)",
    "selectivity ratio": 1
  },
  {
    "MOLECULE": "O=C1CC(N2C(=O)/C(=C/C(Cl)=C/c3ccc([N+](=O)[O-])cc3)SC2=S)C(=O)N1c1ccc(Cl)cc1 (centres undefined)",
    "selectivity ratio": 10.9
  },
  {
    "MOLECULE": "C=CCOc1ccccc1/C=C1\\SC(=S)N(C2CC(=O)N(c3ccc(Cl)cc3)C2=O)C1=O (centres undefined)",
    "selectivity ratio": 1.75
  },
  {
    "MOLECULE": "O=C1CC(N2C(=O)CSC2=S)C(=O)N1c1ccc(O)cc1 (centres undefined)",
    "selectivity ratio": 1
  },
  {
    "MOLECULE": "O=C1Nc2ccccc2/C1=C1/SC(=S)N(C2CC(=O)N(c3ccc(Cl)cc3)C2=O)C1=O (centres undefined)",
    "selectivity ratio": 1
  }
]
